target: Guanidinoacetate N-methyltransferase (Homo sapiens) (UniProt Q14353); test: Confirmatory Screen for Target Class Profiling of Small Molecule Inhibitors of Methyltransferases (AID 1745852); conditions: MTase-Glo luminescence, SAH detection, recombinant enzyme; series mostly up to 57.3 µM; also: potency is read from the fitted curve at half-maximal effect
The source made the active and inactive calls. Calls follow the shape of the full dose curve.
readout_type: Potency

The following compounds have reported results that may help.
compound="CC(CNC(=O)c1nnn2c1c(=O)[nH]c1cc(F)ccc12)c1ccccc1 (stereo unspecified)" result="0.271 µM (active)"
compound=CC(C)CCNC(=O)c1ccc2c(=O)[nH]c3c(C(=O)NC4CCCC4)sc(=S)n3c2c1 result="27.1 µM (active)"
compound=COc1ccc(OC)c(NC(=O)c2sc(=S)n3c2[nH]c(=O)c2ccc(Cl)cc23)c1 result="24.1 µM (active)"
compound=O=C(Nc1ccc2ncnc(N3CCCCC3)c2c1)C1CCCCC1 result="19.2 µM (active)"
compound="O=C(NCCc1ccc(Cl)cc1)c1ccc2c(=O)[nH]c3c(C(=O)NCC4CCCO4)sc(=S)n3c2c1 (stereo unspecified)" result="27.1 µM (active)"

Qu. GET /values?readout=Potency&item= COc1ccc(-c2nnn3c2nc(N2CCOCC2)c2ccccc23)cc1
Ans. 19.2 µM (active)

Qu. GET /values?readout=Potency&item= CCCC1c2cccn2CCN1C(=O)Nc1ccccc1Cl (stereo unspecified)
Ans. inactive

Qu. GET /values?readout=Potency&item= COc1cccc([C@H]2Nc3ccc(S(=O)(=O)Nc4ccc(C)cc4C)cc3[C@H]3C=CC[C@H]32)c1
Ans. 27.1 µM (active)

Qu. GET /values?readout=Potency&item= Cc1ccc(C2Nc3c(ccc(C(=O)O)c3C)C3C=CCC32)cc1 (stereo unspecified)
Ans. inactive

Qu. GET /values?readout=Potency&item= O=C(NCc1ccc2c(c1)OCO2)c1sc(=S)n2c1[nH]c(=O)c1ccc(Cl)cc12
Ans. 24.1 µM (active)

Qu. GET /values?readout=Potency&item= O=C(Nc1ccc2ncnc(N3CCCCC3)c2c1)c1cc(F)ccc1F
Ans. 21.5 µM (active)

Qu. GET /values?readout=Potency&item= O=C(NCc1ccccc1)c1ccc2c(=O)nc3c(-c4ccccc4F)n[nH]n3c2c1
Ans. 0.121 µM (active)
